This listing pairs compounds with measured Ki.
assay.target: human σ1 receptor (Homo sapiens)
Sequence (Q99720 whole entry): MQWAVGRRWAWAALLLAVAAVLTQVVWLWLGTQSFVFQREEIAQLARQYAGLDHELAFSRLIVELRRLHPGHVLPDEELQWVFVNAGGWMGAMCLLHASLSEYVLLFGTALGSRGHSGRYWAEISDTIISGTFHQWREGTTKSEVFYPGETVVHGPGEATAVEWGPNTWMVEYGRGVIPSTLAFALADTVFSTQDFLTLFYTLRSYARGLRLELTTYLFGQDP
assay.text: biochemical
Format: binding
condition.context: read-out: μ and σ1 dual binding
Counter-ions that a name gives are not always drawn.
recorded.metric: Ki

1. N#CCCN1CC2(CCN(CCc3ccccc3)CC2)OC2(CC2)C1=O [Example 181, hydrochloride]
> 500 nM
2. CC1OC2(CCN(CCc3ccccc3)CC2)CN(c2cnccc2C(F)(F)F)C1=O (centres unmarked) [Example 214, hydrochloride]
< 100 nM
3. CC1OC2(CCN(CCc3ccc(N)nc3)CC2)CN(c2ccccc2)C1=O (centres unmarked)
> 500 nM
4. CC1OC2(CCN(CCc3cccc(N)n3)CC2)CN(c2cnccc2C(F)(F)F)C1=O (centres unmarked) [Example 42, hydrochloride]
> 500 nM
5. CC1OC2(CCN(CCc3ccccc3)CC2)CN(Cc2ccncc2)C1=O (centres unmarked)
< 500 nM
6. O=C1COC2(CCN(CCc3ccccc3)CC2)CN1Cc1cccc([N+](=O)[O-])c1
> 500 nM
7. CC(C)=C1OC2(CCN(CCc3ccccc3)CC2)CN(c2ccccc2F)C1=O
> 500 nM
8. O=C1N(c2ccccc2)CC2(CCN(CCc3cccc([N+](=O)[O-])c3)CC2)OC12CC2
> 500 nM
9. O=C(CN1CCC2(CC1)CN(c1ccccc1)C(=O)C1(CC1)O2)c1ccccc1
> 500 nM
10. CC(=O)Nc1ccc(CCN2CCC3(CC2)CN(c2ccccc2)C(=O)C(C)O3)nc1 (centres unmarked)
> 500 nM
11. CC1CN(Cc2ccccc2)CC2(CCN(CCc3ccccc3)CC2)O1 (centres unmarked) [Example 335, dihydrochloride]
< 100 nM
12. c1ccc(CCN2CCC3(CC2)CN(c2ccccc2)CCO3)cc1
< 500 nM
13. CC1OC2(CCN(CCc3ccccc3)CC2)CN(c2ccccc2)C1=O (centres unmarked)
< 100 nM
14. CC1OC2(CCN(CCC(=O)O)CC2)CN(c2ccccc2)C1=O (centres unmarked)
> 500 nM
15. CC1OC2(CCN(CCc3ccccc3)CC2)CN(c2cncc(F)c2)C1=O (centres unmarked) [Example 216, hydrochloride]
< 500 nM
16. O=C1C(COCc2ccccc2)OC2(CCN(CCc3ccccc3)CC2)CN1c1ccccc1 (centres unmarked) [Example 19, hydrochloride]
< 100 nM
17. COc1ccc(CN2CC3(CCN(CCc4ccccc4F)CC3)OC3(CC3)C2=O)cc1
> 500 nM
18. CC1OC2(CCN(CCc3ccccc3)CC2)CN(Cc2ccccc2)C1=O (centres unmarked) [Example 152, hydrochloride]
< 100 nM
19. CC1OC2(CCN(CCc3ccccc3)CC2)CN(c2ccccc2Cl)C1=O (centres unmarked) [Example 193, hydrochloride]
< 100 nM
20. O=C1COC2(CCN(CCc3ccccc3)CC2)CN1Cc1ccc(Cl)cn1 [Example 105, hydrochloride]
< 100 nM
21. CC1OC2(CCN(CCc3csc(NC(=O)OC(C)(C)C)n3)CC2)CN(c2ccccc2F)C1=O (centres unmarked)
> 500 nM
22. C[C@H]1OC2(CCN(CCc3ccccc3F)CC2)CN(c2ncccc2C(F)(F)F)C1=O [Example 222a]
< 500 nM
23. CC1OC2(CCN(CCc3ccccc3[N+](=O)[O-])CC2)CN(c2ccccc2)C1=O (centres unmarked)
> 500 nM
24. O=C1COC2(CCN(CCc3cccc([N+](=O)[O-])c3)CC2)CN1Cc1ccc(C(F)(F)F)cn1
> 500 nM
25. CC1OC2(CCN(CCn3c(=O)oc4ccccc43)CC2)CN(c2ccccc2)C1=O (centres unmarked) [Example 74, hydrochloride]
< 500 nM
26. C=C1OC2(CCN(CCc3ccccc3)CC2)CN(c2ccccc2F)C1=O
> 500 nM
27. O=C1COC2(CCN(CCc3ccccc3O)CC2)CN1c1ccccc1
< 500 nM
28. CC1OC2(CCN(CCc3ncccc3[N+](=O)[O-])CC2)CN(c2ccccc2F)C1=O (centres unmarked)
> 500 nM
29. CC(=O)Nc1cccc(CCN2CCC3(CC2)CN(c2ccccc2)C(=O)[C@@H](C)O3)c1 [Example 244b, hydrochloride]
< 100 nM
30. c1ccc(CCN2CCC3(CC2)CN(Cc2ccccc2)CCO3)cc1 [Example 324, dihydrochloride]
< 100 nM
31. CC1OC2(CCN(CCc3ncccc3Cl)CC2)CN(Cc2ccc(C(F)(F)F)cn2)C1=O (centres unmarked) [Example 45, hydrochloride]
< 100 nM
32. CC(=O)Nc1cccc(CCN2CCC3(CC2)CN(Cc2ccc(C(F)(F)F)cn2)C(=O)CO3)c1 [Example 251, hydrochloride]
< 500 nM
